- TARGET UNDER TEST: CXC chemokine receptor 4 (CXCR4) (human, UniProt P61073 1-352)
- Sequence (P61073 whole entry): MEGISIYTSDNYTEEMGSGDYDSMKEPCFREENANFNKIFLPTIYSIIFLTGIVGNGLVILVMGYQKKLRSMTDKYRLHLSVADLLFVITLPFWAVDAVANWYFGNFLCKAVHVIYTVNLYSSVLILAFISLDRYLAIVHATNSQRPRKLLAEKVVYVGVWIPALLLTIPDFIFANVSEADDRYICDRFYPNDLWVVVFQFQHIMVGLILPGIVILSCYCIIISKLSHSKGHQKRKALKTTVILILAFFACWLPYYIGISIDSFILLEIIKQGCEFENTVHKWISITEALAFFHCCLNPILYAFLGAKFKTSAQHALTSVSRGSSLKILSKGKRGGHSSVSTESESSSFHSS
- EXPERIMENTAL DETAILS: cell-based or functional assay
No end group written: not given here.
MEASURED PROPERTY: IC50 (µM), blocking of X4 tropic HIV-1 NL4-3 infection

Below: 4 binders and their reported IC50 (µM), blocking of X4 tropic HIV-1 NL4-3 infection.
IVRWSKKVPQCS [408I-419 WSC01]	0.87 µM
IVRWCKKVPQVS (also: homodimer, disulfide between Cys of the two monomers) [408I-419 WC03 x2]	0.6 µM
LVRYTKKVPQVST [408-420]	15.3 µM
IVRYSKKVPQC [408I-418 SC]	2.94 µM

Request: Identify measured IC50 (µM), blocking of X4 tropic HIV-1 NL4-3 infection corresponding to IVRWSKKVPCVS [408I-419 WSC02]
Result: 0.31 µM

Request: Identify measured IC50 (µM), blocking of X4 tropic HIV-1 NL4-3 infection corresponding to IVRFTKKVPQVS [408I-419 Y411F]
Result: 3.89 µM

Request: Identify measured IC50 (µM), blocking of X4 tropic HIV-1 NL4-3 infection corresponding to IVRYTKKVPQCS (also: homodimer, disulfide between Cys of the two monomers) [408I-419 V418C x2]
Result: 0.46 µM

Request: Identify measured IC50 (µM), blocking of X4 tropic HIV-1 NL4-3 infection corresponding to LVRYTKKVPQV [408-418]
Result: 26.8 µM

Request: Identify measured IC50 (µM), blocking of X4 tropic HIV-1 NL4-3 infection corresponding to IVRYTKCVPQVS [408I-419 K414C]
Result: 5.87 µM

Request: Identify measured IC50 (µM), blocking of X4 tropic HIV-1 NL4-3 infection corresponding to IVRWTCKVPQVS (also: homodimer, disulfide between Cys of the two monomers) [408I-419 WC02 x2]
Result: 0.32 µM

Request: Identify measured IC50 (µM), blocking of X4 tropic HIV-1 NL4-3 infection corresponding to IVRWTKKVPQVC (also: homodimer, disulfide between Cys of the two monomers) [408I-419 WC01_x2]
Result: 0.4 µM
